# TEST_TARGET: Sigma 1 (Cavia porcellus)
# Sequence (Q60492 whole entry): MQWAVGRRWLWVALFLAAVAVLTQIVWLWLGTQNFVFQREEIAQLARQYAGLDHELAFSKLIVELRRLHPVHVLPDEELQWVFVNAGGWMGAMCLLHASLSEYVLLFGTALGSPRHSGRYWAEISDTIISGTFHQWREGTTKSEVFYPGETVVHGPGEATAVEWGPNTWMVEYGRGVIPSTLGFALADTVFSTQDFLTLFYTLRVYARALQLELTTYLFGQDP
# ASSAY_NAME: Competitive radioligand binding assay, Sigma 1
# Parameters: species or system Guinea pig
ASSAY_ENDPOINT: pKi
The meaning of pKi here: minus log10 of the concentration in molar units.

Problem: Give pKi for this entry on Sigma 1 (Cavia porcellus): "CCN[C@@H](C)Cc1cccc(C(F)(F)F)c1"
Result: 6.96

---

# TEST_TARGET: serotonin 5-HT1A (Rattus norvegicus)
# Construct: serotonin 5-HT1A (rat cerebral cortex); from tissue; host or cells: rat cerebral cortex
# Sequence (P19327 whole entry): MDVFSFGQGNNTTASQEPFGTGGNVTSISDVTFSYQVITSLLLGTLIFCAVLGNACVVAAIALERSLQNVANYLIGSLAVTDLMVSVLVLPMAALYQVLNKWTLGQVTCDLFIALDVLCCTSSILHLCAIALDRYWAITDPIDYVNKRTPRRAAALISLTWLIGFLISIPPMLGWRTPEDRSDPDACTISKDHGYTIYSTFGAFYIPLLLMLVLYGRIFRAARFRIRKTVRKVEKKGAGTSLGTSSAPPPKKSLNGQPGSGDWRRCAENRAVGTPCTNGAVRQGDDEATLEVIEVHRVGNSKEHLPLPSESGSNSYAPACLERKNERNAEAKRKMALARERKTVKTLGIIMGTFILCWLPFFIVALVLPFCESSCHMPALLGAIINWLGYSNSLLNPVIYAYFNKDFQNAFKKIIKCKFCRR
# ASSAY_NAME: Competitive radioligand binding assay, serotonin 5-HT1A
ASSAY_ENDPOINT: pIC50
The meaning of pIC50 here: minus log10 of the concentration in molar units.

Problem: For the compound CCNC(C)Cc1cccc(C(F)(F)F)c1 (racemic) [fenfluramine] , give its measured pIC50 value.
Result: 6.24

Problem: For the compound CCN[C@@H](C)Cc1cccc(C(F)(F)F)c1 [Dexfenfluramine] , give its measured pIC50 value.
Result: 5.89
